- system tested: T1, secreted, soluble Kex2 (Saccharomyces cerevisiae, UniProt P13134 114-613, limits assumed)
- T1 construct: Secreted, soluble construct; also called kexin
- T1 sequence (looked up): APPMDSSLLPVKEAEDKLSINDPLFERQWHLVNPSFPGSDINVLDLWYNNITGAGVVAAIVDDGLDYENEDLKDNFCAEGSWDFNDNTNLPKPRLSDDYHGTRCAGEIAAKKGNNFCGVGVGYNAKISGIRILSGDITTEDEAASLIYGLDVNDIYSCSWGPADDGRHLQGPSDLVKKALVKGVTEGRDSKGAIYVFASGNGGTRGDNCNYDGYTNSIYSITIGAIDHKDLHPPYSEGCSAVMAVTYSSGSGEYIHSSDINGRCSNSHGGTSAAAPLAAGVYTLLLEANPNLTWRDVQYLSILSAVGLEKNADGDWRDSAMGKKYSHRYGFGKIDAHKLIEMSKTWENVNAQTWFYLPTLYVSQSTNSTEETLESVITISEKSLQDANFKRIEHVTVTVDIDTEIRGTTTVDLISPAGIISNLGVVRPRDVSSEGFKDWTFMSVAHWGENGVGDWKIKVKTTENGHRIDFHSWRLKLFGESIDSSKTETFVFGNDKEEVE
- assay overview: equilibrium enzyme inhibition, fluorogenic substrate
Quick list: pKi per entry.
Conceptually, pKi converts a concentration in mol/L into minus its log10.

- binder: "M4K1-eglin (designed binder, N-terminal Met removed) SMGSELKSFPEVVGKTVDQAREYFTLHYPQYDVYFLPEGSMVTKDLRYNRVRVFYNPGTNVVNHVPHVG"
  pKi: 8.35

Could you now consider this next binder?
// returns reported pKi for input R4K1-eglin (designed binder, N-terminal Met removed; also called R4K1-template) SMGSELKSFPEVVGKTVDQAREYFTLHYPQYDVYFLPEGSRVTKDLRYNRVRVFYNPGTNVVNHVPHVG
8.60
